Cited source: patent US12415785B2

Target: human STING (WT) (Homo sapiens (Human), UniProt Q86WV6, H232R)
Sequence (Q86WV6 other isoform, or with tags, fused parts or gaps, stated change not applied): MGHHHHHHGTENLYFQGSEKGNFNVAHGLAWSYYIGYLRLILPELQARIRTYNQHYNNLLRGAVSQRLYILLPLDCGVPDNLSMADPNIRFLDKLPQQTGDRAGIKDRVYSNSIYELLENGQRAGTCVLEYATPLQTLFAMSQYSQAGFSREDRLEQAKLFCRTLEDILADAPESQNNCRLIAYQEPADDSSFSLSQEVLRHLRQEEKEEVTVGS
Test: Surface plasmon resonance (SPR), STING (WT)
Assay type: binding
Details: biotinylated STING on streptavidin chip, 8° C.
experimental endpoint: Kd

Reference set (2 entries):
COc1c(C(N)=O)ccc2c1nc(-c1ccc(Cl)cc1-c1noc(=O)[nH]1)n2CCn1c(-c2ccc(Cl)cc2-c2noc(=O)[nH]2)nc2c(OC)c(C(N)=O)ccc21 [Example 32]
> 80 µM
COc1c(C(N)=O)ccc2c1nc(-c1ccc(C(F)(F)F)cc1C(=O)O)n2CCn1c(-c2ccc(C(F)(F)F)cc2C(=O)O)nc2c(OC)c(C(N)=O)ccc21 [Example 38]
> 100 µM

Turning to the following molecule.
query: State, in one line, measured Kd of COc1c(C(N)=O)ccc2c1nc(-c1ccc(Cl)cc1C(=O)O)n2CCCn1c(-c2ccc(Cl)cc2C(=O)O)nc2c(OC)c(C(N)=O)ccc21 [Example 35]
result: > 100 µM

###

Target: human STING (HAQ) (Homo sapiens, UniProt Q86WV6, G230A/H232R/R293Q)
Sequence (Q86WV6 whole entry G230A/H232R/R293Q, looked up): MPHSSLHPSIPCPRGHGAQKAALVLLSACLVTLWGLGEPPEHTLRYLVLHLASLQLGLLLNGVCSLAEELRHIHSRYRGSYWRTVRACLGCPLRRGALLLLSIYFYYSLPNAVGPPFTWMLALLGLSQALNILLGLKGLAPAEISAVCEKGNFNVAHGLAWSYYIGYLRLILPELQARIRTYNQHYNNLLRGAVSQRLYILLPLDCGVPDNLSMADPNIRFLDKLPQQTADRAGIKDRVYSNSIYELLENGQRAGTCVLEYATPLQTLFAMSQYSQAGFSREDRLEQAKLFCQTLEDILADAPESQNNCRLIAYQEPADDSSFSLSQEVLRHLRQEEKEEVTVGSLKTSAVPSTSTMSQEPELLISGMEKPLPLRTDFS
Experiment: Differential scanning fluorimetry (DSF), huSTING (HAQ)
Format: binding
Conditions: 2 μM protein, compound 100 μM; Tm with ligand minus Tm of protein alone (1% DMSO); read-out: DSF huSTING (HAQ) ΔTm (° C.)
experimental endpoint: ΔTm at 100 µM (°C)

COc1c(C(N)=O)ccc2c1nc(-c1c(Cl)cccc1-c1nn[nH]n1)n2CCn1c(-c2c(Cl)cccc2-c2nn[nH]n2)nc2c(OC)c(C(N)=O)ccc21 (single isomer, unassigned)
29.2
COc1c(C(N)=O)ccc2c1nc(-c1c(F)cccc1-c1n[nH]c(=O)o1)n2CCn1c(-c2c(F)cccc2-c2n[nH]c(=O)o2)nc2c(OC)c(C(N)=O)ccc21
21.3
COc1c(C(N)=O)ccc2c1nc(-c1c(Cl)cccc1C(=O)O)n2CCn1c(-c2c(Cl)cccc2C(=O)O)nc2c(OC)c(C(N)=O)ccc21 (racemic)
28.2

###

Target: human STING (WT) (Homo sapiens (Human), UniProt Q86WV6, H232R)
Assay: Surface plasmon resonance (SPR), STING (WT)
Conditions: biotinylated STING on streptavidin chip, 8° C.
pKd: −log10 of the molar value.
experimental endpoint: pKd

A. COc1c(C(N)=O)ccc2c1nc(-c1ccc(Cl)cc1C(=O)O)n2C/C=C/Cn1c(-c2ccc(Cl)cc2C(=O)O)nc2c(OC)c(C(N)=O)ccc21 [Example 34]
B. COc1c(C(N)=O)ccc2c1nc(-c1c(Cl)cccc1-c1nn[nH]n1)n2CCn1c(-c2c(Cl)cccc2-c2nn[nH]n2)nc2c(OC)c(C(N)=O)ccc21 (single isomer, unassigned) [Example 23]
query: Between the entries labeled A and B , whose measured pKd is lower? Lab note: record the label of whichever item you select.
result: A
(A: 4.13, B: 7.37)

###

Biological target: WT human STING isoform (THP-1-Dual KI-hSTING-R232 cells) (Homo sapiens (Human), UniProt Q86WV6, H232R)
Sequence (Q86WV6 whole entry H232R, canonical isoform): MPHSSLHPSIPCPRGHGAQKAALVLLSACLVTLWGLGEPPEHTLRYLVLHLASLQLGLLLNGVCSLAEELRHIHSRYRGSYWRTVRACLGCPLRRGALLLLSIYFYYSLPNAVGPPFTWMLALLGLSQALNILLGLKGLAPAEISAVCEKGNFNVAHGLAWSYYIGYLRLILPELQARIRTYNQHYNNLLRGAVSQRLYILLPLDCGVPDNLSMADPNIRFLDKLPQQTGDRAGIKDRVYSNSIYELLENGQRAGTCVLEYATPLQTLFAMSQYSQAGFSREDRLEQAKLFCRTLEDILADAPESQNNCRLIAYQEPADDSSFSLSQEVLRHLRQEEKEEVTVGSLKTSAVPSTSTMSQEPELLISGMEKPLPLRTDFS
Test: THP-1-Dual KI-hSTING-R232 reporter cell line assay
Assay type: cell-based
Settings: 24 h incubation, QUANTI-Luc luminescence
pEC50: −log10 of the molar value.
experimental endpoint: pEC50

COc1c(C(N)=O)ccc2c1nc(-c1c(F)cc(Cl)cc1C(=O)O)n2CCn1c(-c2c(F)cc(Cl)cc2C(=O)O)nc2c(OC)c(C(N)=O)ccc21
6.17

A. COc1c(C(N)=O)ccc2c1nc(-c1ccc(Cl)cc1-c1nn[nH]n1)n2CCn1c(-c2ccc(Cl)cc2-c2nn[nH]n2)nc2c(OC)c(C(N)=O)ccc21
B. NC(=O)c1ccc2c(c1)nc(-c1ccccc1-c1nn[nH]n1)n2CCn1c(-c2ccccc2-c2nnn[nH]2)nc2cc(C(N)=O)ccc21
C. COc1c(C(N)=O)ccc2c1nc(-c1ccc(Cl)cc1-c1noc(=O)[nH]1)n2CCn1c(-c2ccc(Cl)cc2-c2noc(=O)[nH]2)nc2c(OC)c(C(N)=O)ccc21
D. COc1c(C(N)=O)ccc2c1nc(-c1c(Cl)cccc1C(=O)O)n2CCn1c(-c2c(Cl)cccc2C(=O)O)nc2c(OC)c(C(N)=O)ccc21 (racemic)
query: Task field, ranking: reported pEC50, descending order. Enter labels, ranked according to the request.
result: A, D, B, C
(A: 6.15, D: 5.84, B: 5.19, C: 4.53)

###

Molecular target: human STING (WT) (Homo sapiens (Human), UniProt Q86WV6, H232R)
Experiment: Differential scanning fluorimetry (DSF), huSTING (WT)
Format: binding
Details: 2 μM protein, compound 100 μM; Tm with ligand minus Tm of protein alone (1% DMSO); read-out: DSF huSTING (WT) ΔTm (° C.)
experimental endpoint: ΔTm at 100 µM (°C)

COc1c(C(N)=O)ccc2c1nc(-c1c(F)cc(Cl)cc1-c1nn[nH]n1)n2CCn1c(-c2c(F)cc(Cl)cc2-c2nn[nH]n2)nc2c(OC)c(C(N)=O)ccc21
14.4

I. COc1c(C(N)=O)ccc2c1nc(-c1cnccc1C(=O)O)n2CCn1c(-c2cnccc2C(=O)O)nc2c(OC)c(C(N)=O)ccc21
II. COc1c(C(N)=O)ccc2c1nc(-c1c(F)cccc1-c1nn[nH]n1)n2CCn1c(-c2c(F)cccc2-c2nn[nH]n2)nc2c(OC)c(C(N)=O)ccc21
III. COc1c(C(N)=O)ccc2c1nc(-c1ccc(Cl)cc1-c1nn[nH]n1)n2CCn1c(-c2ccc(Cl)cc2-c2nn[nH]n2)nc2c(OC)c(C(N)=O)ccc21
IV. COc1ccc(-c2nc3c(OC)c(C(N)=O)ccc3n2CCn2c(-c3ccc(OC)cc3C(=O)O)nc3c(OC)c(C(N)=O)ccc32)c(C(=O)O)c1
query: Sort (4 molecules) by ΔTm at 100 µM: min first. Please write the labels in the order that was asked for.
result: I, IV, III, II
(I: 0.29 °C, IV: 1.09 °C, III: 5.06 °C, II: 11.8 °C)

###

Biological target: human STING (WT) (Homo sapiens (Human), UniProt Q86WV6, H232R)
Assay: Surface plasmon resonance (SPR), STING (WT)
Settings: biotinylated STING on streptavidin chip, 8° C.
experimental endpoint: Kd

COc1c(C(N)=O)ccc2c1nc(-c1ncc(Cl)cc1C(=O)O)n2CCn1c(-c2ncc(Cl)cc2C(=O)O)nc2c(OC)c(C(N)=O)ccc21 [Example 31]
88 µM

query: Give the reported value of Kd for this record: COc1c(C(N)=O)ccc2c1nc(-c1cc(C)ccc1C(=O)O)n2CCn1c(-c2cc(C)ccc2C(=O)O)nc2c(OC)c(C(N)=O)ccc21 [Example 26]
result: > 40 µM

query: Determine its reported Kd: COc1c(C(N)=O)ccc2c1nc(-c1ccccc1C(=O)O)n2CCn1c(-c2ccccc2C(=O)O)nc2c(OC)c(C(N)=O)ccc21 [Example 4]
result: > 10 µM

###

Molecular target: WT human STING isoform (THP-1-Dual KI-hSTING-R232 cells) (Homo sapiens (Human), UniProt Q86WV6, H232R)
Experiment: THP-1-Dual KI-hSTING-R232 reporter cell line assay
Conditions: 24 h incubation, QUANTI-Luc luminescence
EC50 by entry:

See these solved cases before continuing.
COc1c(C(N)=O)ccc2c1nc(-c1ncc(Cl)cc1C(=O)O)n2CCn1c(-c2ncc(Cl)cc2C(=O)O)nc2c(OC)c(C(N)=O)ccc21
> 40 µM
NC(=O)c1ccc2c(c1)nc(-c1ccccc1C(=O)O)n2CCn1c(-c2ccccc2C(=O)O)nc2cc(C(N)=O)ccc21
> 40 µM

query: Give the reported value of EC50 for this record: NC(=O)c1ccc2c(c1)nc(-c1cc(Br)ccc1C(=O)O)n2CCn1c(-c2cc(Br)ccc2C(=O)O)nc2cc(C(N)=O)ccc21
result: > 40 µM

query: Given the compound COc1c(C(N)=O)ccc2c1nc(-c1ccc(C(F)(F)F)cc1C(=O)O)n2CCn1c(-c2ccc(C(F)(F)F)cc2C(=O)O)nc2c(OC)c(C(N)=O)ccc21 , write its reported EC50.
result: > 40 µM

query: Quote EC50 reported for NC(=O)c1ccc2c(c1)nc(-c1c(Br)cccc1C(=O)O)n2CCn1c(-c2c(Br)cccc2C(=O)O)nc2cc(C(N)=O)ccc21 (single isomer, unassigned) [Example 29.2] please.
result: > 40 µM
